TARGET OR TEST SYSTEM: glutathione-S-transferase (GST) tagged LXRbeta LBD (ligand binding domain) (Homo sapiens)
Construct: purchased Invitrogen pv4658.pps
EXPERIMENTAL DETAILS: LanthaScreen TR-FRET Liver X Receptor Coactivator Assay, LXR beta-LBD
Type: biochemical
ASSAY CONDITIONS: efficacy in relation to reference dual agonist T1317; read-out: LXR beta activity at max dose (%) (Emax)
METRIC NAME: Emax (%)
Report as a plain number; the unit % is understood.

1. CN(C)C(=O)c1ccc(-c2cnc(N3CCN(C(=O)[C@@](O)(c4ccccc4)C(F)(F)F)CC3)c(C#N)c2)cc1Cl; 68
2. CN(C)C(=O)c1ccc(-c2cnc(N3CCN(C(=O)OCc4ccccc4F)CC3)c(C#N)c2)cc1Cl; 92
3. CC(C)C(=O)C(=O)N1CCN(c2ncc(-c3cc(Cl)c(C(=O)N(C)C)c(Cl)c3)cc2C#N)CC1; 88

*Q* Fill in reported Emax for this entry: CCc1cc(-c2cnc(N3CCN(C(=O)OC(C)(C)C)CC3)c(C#N)c2)ccc1C(=O)N(C)C
*A* 71

====

TARGET OR TEST SYSTEM: glutathione-S-transferase (GST) tagged LXRbeta LBD (ligand binding domain) (Homo sapiens, UniProt P55055)
Sequence (P55055 222-460 limits assumed): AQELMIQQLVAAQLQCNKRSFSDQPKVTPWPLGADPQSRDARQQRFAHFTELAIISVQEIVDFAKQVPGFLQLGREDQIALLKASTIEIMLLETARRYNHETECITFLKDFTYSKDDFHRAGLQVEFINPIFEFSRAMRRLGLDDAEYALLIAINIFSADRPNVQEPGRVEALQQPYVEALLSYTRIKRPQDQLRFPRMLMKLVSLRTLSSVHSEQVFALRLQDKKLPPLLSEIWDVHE
EXPERIMENTAL DETAILS: LanthaScreen TR-FRET Liver X Receptor Coactivator Assay, LXR beta-LBD
ASSAY CONDITIONS: potency (Inflection Point) of co-activator recruitment, TR-FRET; read-out: LXR beta IP
pEC50: −log10 of the molar value.
Threshold check on pEC50: at or above 7 gives 1 (yes), strictly below gives 0 (no).

1) CN(C)C(=O)c1ccc(-c2cnc(N3CCN(C(=O)[C@@](C)(O)C(F)(F)F)CC3)c(C#N)c2)cc1Cl; 0 (no)
2) CN(C)C(=O)c1ccc(-c2cnc(N3CCN(C(=O)C(C)(C)c4ccccc4)CC3)c(C#N)c2)cc1Cl; 1 (yes)
3) CC(C)(C)OC(=O)N1CCN(c2ncc(-c3ccc(C(=O)NCc4ncc[nH]4)c(Cl)c3)cc2C#N)CC1; 1 (yes)
4) CC(O)CN(CC(C)O)C(=O)c1ccc(-c2cnc(N3CCN(C(=O)OC(C)(C)C)CC3)c(C#N)c2)cc1Cl (centres unmarked); 0 (no)

*Q* Hi team, for CN(C)C(=O)c1ccc(-c2ccc(N3CC4CCC3CN4C(=O)OC(C)(C)C)cc2)cc1Cl (centres unmarked) , is the recorded pEC50 at or above 7?
*A* 1 (yes)

*Q* Hi team, for CN(C)C(=O)c1ccc(-c2ccc(N3CC4CCC(C3)N4C(=O)OC(C)(C)C)cc2)cc1Cl , is the recorded pEC50 at or above 7?
*A* 0 (no)

*Q* Hi team, for CN(C)C(=O)c1ccc(-c2ccc(N3CCN(C(=O)c4c(F)cccc4Cl)CC3)cc2)cc1Cl , is the recorded pEC50 at or above 7?
*A* 0 (no)

*Q* Hi team, for CN(C)C(=O)c1ccc(-c2cnc(N3CCN(S(=O)(=O)c4ccccc4C(F)(F)F)CC3)c(C#N)c2)cc1Cl , is the recorded pEC50 at or above 7?
*A* 1 (yes)

*Q* Hi team, for CNC(=O)c1ccc(-c2cnc(N3CCN(C(=O)C(C)(C)C)CC3)c(C#N)c2)cc1Cl , is the recorded pEC50 at or above 7?
*A* 0 (no)

*Q* Hi team, for CN(C)C(=O)c1ccc(-c2cnc(N3CCN(C(=O)Cc4cn5ccsc5n4)CC3)c(C#N)c2)cc1Cl , is the recorded pEC50 at or above 7?
*A* 0 (no)
